Tested on: SUDIPGXIII (diffuse intrinsic pontine glioma line)
Test: growth inhibition (% activity, log2 RLU normalised to DMSO / staurosporine); higher = more growth inhibition
Conditions: 33 µM
value kind: growth inhibition

molecule_smiles=CC(=O)Nc1cc([As](=O)(O)O)ccc1O value_reported=1.03%
molecule_smiles=N.N.[Cl][Pt][Cl] value_reported=1.82%
molecule_smiles=O=c1[nH]c2ccccc2n1CCCN1CCC(n2c(=O)[nH]c3cc(Cl)ccc32)CC1 value_reported=-2.52%

---

Tested on: DIPGX37 (H3.3 K27M diffuse intrinsic pontine glioma line)
Experiment: growth inhibition (% activity, log2 RLU normalised to DMSO / staurosporine); higher = more growth inhibition
Details: 33 µM
value kind: growth inhibition (%)

molecule="NCC(CC(=O)O)c1ccc(Cl)cc1 (configuration not stated)" unit_tag=% value_reported=-2.95
molecule="Cc1cc(C(C#N)c2ccc(Cl)cc2)c(Cl)cc1NC(=O)c1cc(I)cc(I)c1O (configuration not stated)" unit_tag=% value_reported=-1.84
molecule=O=C(O)c1nn(Cc2ccc(Cl)cc2Cl)c2ccccc12 unit_tag=% value_reported=2.18
molecule="CC(=O)OC1CN2CCC1CC2 (configuration not stated)" unit_tag=% value_reported=1.16
molecule=CCCCCCCCCCCCCCCC[n+]1ccccc1 unit_tag=% value_reported=58.4
molecule=C=C(C)[C@@H]1[C@H]2OC(=O)[C@@H]1[C@]1(O)C[C@H]3O[C@]34C(=O)O[C@H]2[C@]14C unit_tag=% value_reported=1.09
molecule=CN(C)C(=O)Oc1ccc[n+](C)c1 unit_tag=% value_reported=-1.26
molecule=NCCc1c[nH]c2ccc(O)cc12 unit_tag=% value_reported=0.315
molecule=CNCC(=O)c1ccc(O)c(O)c1 unit_tag=% value_reported=2.52
molecule=CCN(C)C(=O)Oc1cccc([C@H](C)N(C)C)c1 unit_tag=% value_reported=-0.495
molecule=C[C@@H]1O[C@@H](O[C@H]2C[C@@H](O)[C@]3(CO)[C@H]4[C@H](O)C[C@]5(C)[C@@H](C6=CC(=O)OC6)CC[C@]5(O)[C@@H]4CC[C@]3(O)C2)[C@H](O)[C@H](O)[C@H]1O unit_tag=% value_reported=21.1
molecule=COc1cc2c(cc1OC)[C@@]13CCN4CC5=CCO[C@H]6CC(=O)N2[C@H]1[C@H]6[C@H]5C[C@H]43 unit_tag=% value_reported=0.569
molecule="O=P1(NCCCl)OCCCN1CCCl (configuration not stated)" unit_tag=% value_reported=-0.766
molecule="CNC1CC(N)C(O)C(OC2OC(CO)C(O)C3OC4(OC(C(N)CO)C(O)C(O)C4O)OC23)C1O (configuration not stated)" unit_tag=% value_reported=1.71
molecule=C[C@@H]1CC[C@H]2[C@@H](C)C(=O)O[C@@H]3O[C@@]4(C)CC[C@@H]1[C@]32OO4 unit_tag=% value_reported=-0.962
molecule=CN1[C@@H]2C[C@@H](OC(=O)[C@H](CO)c3ccccc3)C[C@H]1[C@@H]1O[C@@H]12 unit_tag=% value_reported=-2
molecule="CC(NC(C)(C)C)C(=O)c1cccc(Cl)c1 (configuration not stated)" unit_tag=% value_reported=-0.598
molecule=c1ccc2c(c1)sc1ccccc12 unit_tag=% value_reported=-0.0217
molecule="CN1C2CC(O)CC1C1OC12 (configuration not stated)" unit_tag=% value_reported=-0.452
molecule="CC(O)(CS(=O)(=O)c1ccc(F)cc1)C(=O)Nc1ccc(C#N)c(C(F)(F)F)c1 (configuration not stated)" unit_tag=% value_reported=-1.44
molecule=O=C1CC[C@@]2(O)[C@H]3Cc4ccc(O)c5c4[C@@]2(CCN3CC2CC2)[C@H]1O5 unit_tag=% value_reported=1.95
molecule="COc1ccc(C(CN(C)C)C2(O)CCCCC2)cc1 (configuration not stated)" unit_tag=% value_reported=1.34
molecule=CCCN1C[C@H](CSC)C[C@@H]2c3cccc4[nH]cc(c34)C[C@H]21 unit_tag=% value_reported=-1.76
molecule=N.N.[Cl][Pt][Cl] unit_tag=% value_reported=0.384
molecule="CC(C)c1c(CN(C)C(C)Cc2ccccc2)n(C)n(-c2ccccc2)c1=O (configuration not stated)" unit_tag=% value_reported=0.985
molecule="Cc1c(N)nc(C(CC(N)=O)NCC(N)C(N)=O)nc1C(=O)NC(C(=O)NC(C)C(O)C(C)C(=O)NC(C(=O)NCCc1nc(-c2nc(C(=O)NCCC[S+](C)C)cs2)cs1)C(C)O)C(O[C@@H]1O[C@@H](CO)[C@@H](O)[C@H](O)[C@@H]1O[C@H]1O[C@H](CO)[C@@H](O)[C@H](OC(N)=O)[C@@H]1O)c1cnc[nH]1 (some centres not stated)" unit_tag=% value_reported=5.42
molecule="O=P1(N(CCCl)CCCl)NCCCO1 (configuration not stated)" unit_tag=% value_reported=-0.973
molecule="CN1C(=O)CCS(=O)(=O)C1c1ccc(Cl)cc1 (configuration not stated)" unit_tag=% value_reported=0.814
molecule=Cc1cc(O)ccc1Cl unit_tag=% value_reported=0.714
molecule=C/C=C(\C)C(=O)N[C@@H](c1ccccc1)[C@@H](O)C(=O)O[C@H]1C[C@@]2(O)[C@@H](OC(=O)c3ccccc3)[C@@H]3[C@]4(OC(C)=O)CO[C@@H]4C[C@H](O)[C@@]3(C)C(=O)[C@H](OC(C)=O)C(=C1C)C2(C)C unit_tag=% value_reported=8.35
molecule=O=c1[nH]c2ccccc2n1CCCN1CCC(n2c(=O)[nH]c3cc(Cl)ccc32)CC1 unit_tag=% value_reported=-0.863
molecule=C#C[C@]1(O)CC[C@H]2[C@@H]3CCC4=CC(=O)CC[C@]4(C)[C@H]3CC[C@@]21C unit_tag=% value_reported=2.06
molecule=C[N+](C)(C)CCCCCCCCCC[N+](C)(C)C unit_tag=% value_reported=-0.577
molecule=COC(=O)C1=CCCN(C)C1 unit_tag=% value_reported=4.11
molecule=C#C[C@]1(O)C=C[C@H]2[C@@H]3CCC4=CC(=O)CC[C@@H]4[C@H]3CC[C@@]21CC unit_tag=% value_reported=0.668
molecule=CC(C)N(CCNC(=O)CN1CCCC1=O)C(C)C unit_tag=% value_reported=3.86
molecule="CCC1(c2cccc(O)c2)CCCCN(C)C1 (configuration not stated)" unit_tag=% value_reported=0.766
molecule=C[N+]1(C)[C@@H]2C[C@@H](OC(=O)[C@H](CO)c3ccccc3)C[C@H]1[C@@H]1O[C@@H]12 unit_tag=% value_reported=1.29
molecule=COc1ccc(C(=O)N2CCCC2=O)cc1 unit_tag=% value_reported=0.424
molecule=N[C@@H]1C[C@H]1c1ccccc1.N[C@H]1C[C@@H]1c1ccccc1 unit_tag=% value_reported=3.63
molecule="CCC1(c2ccc(N)cc2)CCC(=O)NC1=O (configuration not stated)" unit_tag=% value_reported=0.792
molecule="CC(C)NCC(O)c1ccccc1Cl (configuration not stated)" unit_tag=% value_reported=-1.04
